assay: NCI Yeast Anticancer Drug Screen. Data for the cln2 rad14 strain (AID 165);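 note: 0% = growth equal to vehicle treated cultures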; conditions: S. cerevisiae cln2 rad14 strain, at 50.0 µM, active compounds read high
Compounds without any hit were thinned out: in the full panel of roughly 79,000, 15% have a hit.
The entries below are paired with their reported growth inhibition.
value.kind: growth inhibition (%)

1. COc1cc([N+](=O)[O-])c(F)cc1F: -20.1
2. CCOC(=O)/C(C#N)=C/Nc1ccncc1: 11.6
3. COC(=O)NN(C(=O)OC)C12CCCCC1N(C(=O)OC)N(C(=O)OC)c1c2ccc2cc(OC)ccc12 (stereo unspecified): -14.1
4. COc1ccc2c(ccc[n+]2CC(=O)c2ccc(Cl)cc2)c1: 28.4
5. C#CC1(NC(=O)c2ccccc2C(=O)Nc2cccc(C(F)(F)F)c2)CCCCC1: 11.3
6. C/C=C/Cc1ccccc1O: -6.4

###

The entries below are paired with their reported growth inhibition.
assay: NCI Yeast Anticancer Drug Screen. Data for the mec2-1 strain (AID 157); settings: S. cerevisiae mec2-1 strain, at 50.0 µM, active compounds read high
The panel holds about 79,000 compounds, 15% with a hit somewhere; the sample as a whole holds those more often.
value.kind: growth inhibition (%)

1. c1ccc(C(=C2CCCCCCCCCCCCC2)c2ccccc2)cc1: 2.9
2. CCOC(=O)NN(C(=O)OCC)c1c(C)cc(C)c(N(NC(=O)OCC)C(=O)OCC)c1C: 7.25
3. CO/C=C/c1cc2c(cc1Br)OCO2: 5.15
4. CC1=C(C)OCC1: 4
5. O=C(Nc1ccccc1)c1ccccc1Cl: -0.15
6. COc1cc(C(=O)NO)c(Br)c(OC)c1OC: 9.5
7. COC(=S)OC1CC(n2cnc3c(N)ncnc32)OC1CO[Si](C)(C)C(C)(C)C (stereo not drawn): -8.25
8. C(=C\C[P+](c1ccccc1)(c1ccccc1)c1ccccc1)/C[P+](c1ccccc1)(c1ccccc1)c1ccccc1: 13
9. Nc1nc2c(ncn2C2OCC(O)C(O)C2O)c(=O)[nH]1 (stereo not drawn): -9.7
10. CC1C(=O)CCC2CCCCC21 (stereo not drawn): -17.4
11. O=[N+]([O-])c1ccc(/C=C/c2cc(-c3ccccc3)nc3ccc4ccccc4c23)cc1: 5.1
12. COc1ccc(C(=O)Cc2ccc3ccccc3n2)cc1: 16.7
13. O=[N+]([O-])c1ccc(N=C/C=C\Nc2ccc([N+](=O)[O-])cc2)cc1: 14.8

###

experiment: NCI Yeast Anticancer Drug Screen. Data for the mlh1 rad18 strain (AID 175); conditions: S. cerevisiae mlh1 rad18 strain growth inhibition; at 50.0 µM; active compounds read high
About 79,000 compounds went through this panel and 15% of them were active in at least one assay; those are over-represented in the sample as a whole.
value.kind: growth inhibition (%)

1) CC(=O)c1ccccc1NC(=O)C(=O)C(C(=O)c1ccccc1-c1ccccc1)C1OC(=O)c2ccccc21 (stereo not drawn): 11.3
2) CCC(O)(CC)Cc1ccc(Cl)cc1: -6.65
3) CC(=O)Nc1ccc(-c2nnc(SCC(=O)Nc3cccc(C)c3)o2)cc1: -7.75
4) O=c1c2cc([N+](=O)[O-])ccc2c2ccc([N+](=O)[O-])cc2c(=O)n1-c1ccc2c(c1)Cc1ccccc1-2: -5
5) CCCCCCC(=O)C(=O)O: 59.5
6) O=C1C2C(C(=O)N1c1ccccc1)C1(Br)c3ccccc3C2(Br)C2C(=O)N(c3ccccc3)C(=O)C21 (stereo not drawn): -2.55
7) NC(=S)N1CC=CCC1: -6.8
8) COc1ccc(C2N3CCCCC3[C@@H]3c4[nH]c5ccccc5c4CCN23)c(OC)c1 (stereo partly drawn): -9.65
9) CC(=O)OC1/C=C(/C)CCC2OC2(C)CC2OC(=O)C3(CC3)C12 (stereo not drawn): -7.2
10) CC(=O)OC1CCC2(C)C(C1)CC(OC(C)=O)C1C2CC(OC(C)=O)C2(C)C(C(C)CC=C(c3ccccc3)c3ccccc3)CCC12 (stereo not drawn): 8.45
11) CCCCCCCC[n+]1cccc(C#N)c1: 19.1
12) CC(=O)OCSc1ncnc2c1ncn2CN1CCOCC1: 7.85
13) CC(=O)N(C(C)=O)n1c(Cc2ccc(C)cc2)nn(C(C)=O)c1=O: -27.9

###

The entries below are paired with their reported growth inhibition.
assay: NCI Yeast Anticancer Drug Screen. Data for the sgs1 mgt1 strain (AID 161);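 note: 0% = growth of cultures given vehicle only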; conditions: S. cerevisiae sgs1 mgt1 strain, at 50.0 µM, active compounds read high
The panel holds about 79,000 compounds, 15% with a hit somewhere; the sample as a whole holds those more often.
value.kind: growth inhibition (%)

1. COC(=O)c1cc(C(=O)OC)c2c3[nH]cnc3ncn2c1=O: 15.9
2. CCOC(=O)C1SC(=S)N(c2ccccc2)C1N (stereo not drawn): 39.8
3. COc1cc2c(cc1OC)C(=O)Cc1ccc3c(c1CN(C)CC2)OCO3: -21.7
4. CCCCNC(=O)/C(=C\c1ccccc1)NC(C)=O: 0.85
5. Cc1cccc(NCc2ccccc2)c1: 19.4
6. COC(=O)C1=C2C3(O)CC4CC5C3CCC(C)N5C24C2CCC(O)C(OC)C2C1OC(=O)c1ccccc1 (stereo not drawn): -20.9
7. CC1CC(=O)C2CC(Cl)CCC2(C)C1C (stereo not drawn): -4.6
8. NC1=NC(c2ccccc2)C2=C(N1)C(=O)N(c1ccc(Br)cc1)C2 (stereo not drawn): -2.45
9. CCCCN(C=O)c1ccccc1: 2.95
10. N#[N+]c1ccc2c(c1)C(=O)c1ccccc1-2: -0.6
11. Cc1ccc2cccc(N)c2n1: -8
12. COc1ccc(CC(O)CN2CCC(CCN)CC2)cc1 (stereo not drawn): -12.2
13. NC(=S)N/N=C(/CC(=O)c1ccc([N+](=O)[O-])cc1)C(=O)Nc1ncc([N+](=O)[O-])s1: 30.1
14. COCCCCCOC: -3.4
15. O=S(=O)(O)SCC1=NCCCCN1: -6.35
16. CN(/C=C1\CCCCC1=O)c1ccccc1: -35.4
17. O=NC(C[N+](=O)[O-])c1ccccc1 (stereo not drawn): 2.7
18. CCOC(=O)C(C)C(=O)C(C)C (stereo not drawn): 0.75
19. CCC(/C(=N/NC(=O)C[N+](C)(C)C)c1ccccc1)C1OC(=O)c2ccccc21 (stereo not drawn): 16.1
20. CC(C)OC(=O)C1=C(C(=O)OC(C)C)CCCC1: 4.4
21. O=c1[nH]c2c(Cl)c(Cl)cc(Cl)c2o1: 23.9
22. OCCc1ccccc1CCO: -13.2
23. COc1ccc2c(cnc3c4cc(OC)c(OC)cc4ccc23)c1: 4.05

###

assay: NCI Yeast Anticancer Drug Screen. Data for the mec2-1 strain (AID 157); settings: S. cerevisiae mec2-1 strain, at 50.0 µM, active compounds read high
Compounds without any hit were thinned out: in the full panel of roughly 79,000, 15% have a hit.
value.kind: growth inhibition (%)

1. CCC(C)NC(=O)/C(=C\c1ccccc1O)NC(=O)c1ccccc1 (configuration not stated): -35.6
2. COC(=O)c1c(C)ccc(C)c1C(=O)c1c(C)cc(C)cc1C: 11.5
3. O=C(O)c1nc(-c2ccccc2)[nH]c1C(=O)O: 5.6
4. NNC(=O)CCC(=O)NC1C2CC3CC(C2)CC1C3 (configuration not stated): -15.4
5. Cc1cc(C)n(-c2ccnc(-n3nc(C)cc3C)n2)n1: 23.9
6. COC1C(=O)CCC2(CO2)C1(O)C1(C)OC1CC=C(C)C (configuration not stated): -34.4
7. O=C(Oc1c([N+](=O)[O-])cc(-c2ccccc2)cc1[N+](=O)[O-])c1ccccc1: 18.1

###

assay: NCI Yeast Anticancer Drug Screen. Data for the bub3 strain (AID 167); conditions: S. cerevisiae bub3 mutant strain, at 50.0 µM, active compounds read high
The panel holds about 79,000 compounds, 15% with a hit somewhere; the sample as a whole holds those more often.
The entries below are paired with their reported growth inhibition.
value.kind: growth inhibition (%)

1. CCN(CC)CCN(CC)CC(=O)Nc1ccccc1Cl: -3.6
2. O=C(CCc1cc(-c2ccc(F)cc2)n[nH]1)N(Cc1ccccc1)Cc1ccccc1: -20.2
3. CC(O)C(O)C(O)CO (stereo not given): 24.4
4. Cc1ccc2c(ccc3nnc(C)n32)c1: 2.75
5. Cn1c(=O)[nH]nc(Br)c1=O: -4.6

###

test: NCI Yeast Anticancer Drug Screen. Data for the rad50 strain (AID 155);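 note: 0% = growth of vehicle-only cultures of the same strain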; details: S. cerevisiae rad50 strain growth inhibition; at 50.0 µM; active compounds read high
This is part of a sample that, as a whole, favours compounds with a hit. Of some 79,000 tested, about 15% had one in any assay.
value.kind: growth inhibition (%)

1. COc1cc(/C=C(\OC(C)=O)c2ccc3c(c2)OCO3)cc(OC)c1OC: -5
2. COc1cc2c(c(OC)c1OC)-c1ccc(OC)c(=O)cc1[C@@H](NC(=O)c1ccccc1)CC2: 11.7
3. CCOC(=O)c1nc(SC)sc1NC(=O)c1ccccc1[N+](=O)[O-]: 21.2
4. N=c1ccc2nc(N)nn(O)c-2c1: -1.2
5. NC(=S)N1CC=CCC1: -8.65
6. Cc1ccc(CNC(=O)NCCCCCCNC(=O)NCc2ccc(C)cc2)cc1: -29.4
7. O=C(CN=C(CN(c1ccccc1)c1ccccc1)Oc1c(Cl)cc(Cl)cc1Cl)n1cnc2ccccc21: 0.9
8. COc1cc(CC2COC(=O)C2Cc2ccc(O)c(OC)c2)ccc1O (stereo not given): -4.85
9. CN1CCC(c2ccccc2)(c2ccccc2)OC1c1ccccc1 (stereo not given): 1.65
10. CN(NC(=O)c1cccs1)C1=NCCN1: -25.9
11. CNC(=O)c1n[nH]c(=S)[nH]c1=O: -7.4
12. CC1=NNC(c2ccco2)C1 (stereo not given): 10.2
13. O=C(CN1C(=O)c2ccccc2C1=O)OCC(=O)c1ccccc1: 18.9
14. ClC1=CC(Cl)=C2N=C(N3CCCC3)N=C3N=C(N4CCCC4)N=C1N32: -15.2
15. C[Si](C)(C)N1N=NC2C(=O)N(c3ccccc3)C(=O)C21 (stereo not given): -10.4
16. CSc1ccc(NC(=O)Nc2cc(C)ccc2Cl)cc1: -2.05
17. Cc1c2cc3c(c1O)C(=O)CC(O3)c1ccc(O)c(c1)-c1cccc(c1O)C(=O)OCC1OC(O2)C(O)C(O)C1O (stereo not given): 51.2
18. CCCCC(CC)CN(CC(CC)CCCC)C1C=CCCC1 (stereo not given): 3.6
19. CC1(C)CC(=O)C2=C(C1)NC1=C(C2)C(=O)CC(C)(C)C1: -15.4
20. CCCCc1c2c([n+]([O-])c3c1CCCC3)CCCC2: 29.4
